# Tested on: Platelet-derived growth factor receptor alpha (Homo sapiens), P16234 [T674I]
# Sequence (P16234 whole entry T674I): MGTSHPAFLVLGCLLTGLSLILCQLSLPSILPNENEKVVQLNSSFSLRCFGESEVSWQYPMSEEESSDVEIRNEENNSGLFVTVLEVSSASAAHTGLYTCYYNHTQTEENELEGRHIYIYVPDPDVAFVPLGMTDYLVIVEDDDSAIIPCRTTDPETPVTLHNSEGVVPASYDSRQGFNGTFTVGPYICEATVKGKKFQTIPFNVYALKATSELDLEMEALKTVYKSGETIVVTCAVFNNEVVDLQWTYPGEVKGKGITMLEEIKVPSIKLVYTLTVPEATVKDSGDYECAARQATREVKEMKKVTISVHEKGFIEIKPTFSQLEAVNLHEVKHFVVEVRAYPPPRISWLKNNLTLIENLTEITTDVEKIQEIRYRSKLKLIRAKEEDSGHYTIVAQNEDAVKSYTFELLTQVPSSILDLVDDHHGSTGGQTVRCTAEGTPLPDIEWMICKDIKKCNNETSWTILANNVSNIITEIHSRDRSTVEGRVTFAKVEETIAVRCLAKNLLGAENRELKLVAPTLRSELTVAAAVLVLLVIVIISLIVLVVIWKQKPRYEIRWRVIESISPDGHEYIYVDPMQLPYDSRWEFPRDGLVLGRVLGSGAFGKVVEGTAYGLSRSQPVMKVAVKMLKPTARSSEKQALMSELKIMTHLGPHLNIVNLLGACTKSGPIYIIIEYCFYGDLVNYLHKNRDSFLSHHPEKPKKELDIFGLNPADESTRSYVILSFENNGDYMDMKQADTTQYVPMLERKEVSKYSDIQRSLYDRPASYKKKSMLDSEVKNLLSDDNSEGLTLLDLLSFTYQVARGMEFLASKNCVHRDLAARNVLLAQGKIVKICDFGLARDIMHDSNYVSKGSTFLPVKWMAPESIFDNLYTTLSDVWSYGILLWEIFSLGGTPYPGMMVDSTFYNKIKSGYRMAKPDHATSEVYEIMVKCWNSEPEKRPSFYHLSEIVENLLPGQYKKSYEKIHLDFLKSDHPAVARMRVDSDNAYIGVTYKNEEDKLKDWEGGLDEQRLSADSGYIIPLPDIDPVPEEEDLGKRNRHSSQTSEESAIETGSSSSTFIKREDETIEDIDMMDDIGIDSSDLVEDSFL
# protocol-conditions: at 1 µM
value-kind: inhibition (%)

> print(dat)
                                    compound  value.kind  value
 1  NS(=O)(=O)c1ccc(N/N=C2\C(=O)Nc3ccc(C(=O)NCCc4c[nH]cn4)cc32)cc1  inhibition   14.5
 2  CCN1CCC(CC(=O)Nc2n[nH]c3nc(-c4cccs4)c(Br)cc23)CC1  inhibition   3.53
 3  CN(C)c1cc2c(Nc3ccc4nc(Cc5ccccc5)[nH]c4c3)ncnc2cn1  inhibition    6.9
 4      CNC(=O)c1cncc(/C=C/c2c(Cl)cccc2Cl)c1  inhibition   5.24
 5  O=C1NC(=O)C(c2ccc(Cl)cc2)=C1Nc1ccc(Cl)c(C(=O)O)c1  inhibition   1.25
 6  CCn1c(-c2nonc2N)nc2c(C#CC(C)(C)O)nc(OC[C@@H](N)c3ccccc3)cc21  inhibition   27.6
 7  Nc1ncnc2occ(-c3ccc(NC(=O)Nc4cccc(C(F)(F)F)c4)cc3)c12  inhibition     85
 8                CCn1c(-c2nonc2N)nc2ccncc21  inhibition   1.31
 9  CC1=C(C(=O)Nc2ccc3[nH]ncc3c2)C(c2ccc(Cl)c(Cl)c2)CC(=O)N1 (configuration not stated)  inhibition   1.49
10       Cn1cc(C=C2C(=O)Nc3cccnc32)c2ccccc21  inhibition   20.2
11   COc1ccc(COc2ccc(Cc3cnc(N)nc3N)cc2OC)cc1  inhibition    1.3
12  CN1CCC(C(=O)Nc2n[nH]c3nnc(-c4ccccc4)cc23)CC1  inhibition   7.55

---

Reported inhibition is given for each of the following compounds.
# measured-target: Proto-oncogene tyrosine-protein kinase Src (Homo sapiens) (UniProt P12931);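 also: values are averaged inhibition of Src, tested against the GSK PKIS kinase inhibitor set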
# Sequence (P12931 2-536 limits assumed): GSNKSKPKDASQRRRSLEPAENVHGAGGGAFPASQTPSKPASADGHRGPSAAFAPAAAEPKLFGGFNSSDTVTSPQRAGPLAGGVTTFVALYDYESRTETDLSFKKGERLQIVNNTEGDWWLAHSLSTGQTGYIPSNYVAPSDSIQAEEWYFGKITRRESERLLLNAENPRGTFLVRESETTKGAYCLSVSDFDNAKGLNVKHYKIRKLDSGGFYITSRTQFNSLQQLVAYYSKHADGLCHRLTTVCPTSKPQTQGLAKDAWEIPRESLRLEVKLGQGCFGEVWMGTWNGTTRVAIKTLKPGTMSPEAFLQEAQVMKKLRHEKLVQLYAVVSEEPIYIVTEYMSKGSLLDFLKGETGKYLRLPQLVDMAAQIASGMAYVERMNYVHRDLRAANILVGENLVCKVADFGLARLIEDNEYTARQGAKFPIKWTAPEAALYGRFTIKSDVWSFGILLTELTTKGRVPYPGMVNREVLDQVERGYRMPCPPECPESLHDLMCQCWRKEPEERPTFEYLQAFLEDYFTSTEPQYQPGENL
# protocol-conditions: at 0.1 µM
value-kind: inhibition (%)

> print(dat)
                                    compound  value
 1  CCc1cccc(NC(=O)Nc2ccc(Oc3ccc4nc(NC(=O)OC)[nH]c4c3)cc2)c1   0.79
 2  COc1cc2c(cc1Nc1nc(N3CCc4ccccc43)c3cc[nH]c3n1)N(C(=O)CN(C)C)CC2   1.56
 3  CCn1c(-c2nonc2N)nc2c(C#CC(C)(C)O)nc(OC[C@@H](N)c3ccccc3)cc21   2.45
 4      CNC(=O)c1cncc(/C=C/c2c(Cl)cccc2Cl)c1   14.3
 5       Cn1cc(C=C2C(=O)Nc3cccnc32)c2ccccc21   12.8
 6   COc1cc(C=NNc2ncnc3c2cnn3-c2ccccc2)ccc1O   28.6
 7  CCn1c(-c2nonc2N)nc2cncc(C(=O)N3CC[C@H](N)C3)c21  -1.35
 8  COC(=O)Nc1nc2cc(Oc3ccc(NC(=O)Nc4cccc(C(=O)O)c4)cc3)ccc2[nH]1   1.83
 9  CS(=O)(=O)CCNCc1ccc(-c2ccc3ncnc(Nc4ccc(OCc5ccccc5)c(Cl)c4)c3c2)o1    0.6
10  Fc1cccc(COc2ccc(Nc3ncnc4sc(-c5cccs5)cc34)cc2Cl)c1    2.2
11  COc1cc2ncn(-c3cc(O[C@H](C)c4ccccc4Cl)c(C(N)=O)s3)c2cc1OC   7.81
12             COc1ccc(-c2coc3ncnc(N)c23)cc1   5.47
13               COc1ccc(-c2ccncc2)cc1C(N)=O   11.3
14                CCn1c(-c2nonc2N)nc2ccncc21   8.34
15  Cc1ccc(NC(=O)c2ccnc(N3CCCC3)c2)cc1-c1ccc(C(=O)NCC2CC2)cc1   4.44
16  CC(C)=Cc1cccc2c1/C(=N/Nc1ccc(S(N)(=O)=O)cc1)C(=O)N2   10.8
17  COc1cc(C)c(NC(=O)CN(C)C)cc1Nc1nc(Nc2cccc(F)c2C(N)=O)c2cc[nH]c2n1   11.1
18  COc1cc2ncn(-c3cc(OCc4ccccc4Cl)c(C(N)=O)s3)c2cc1OC   20.5
19  Cc1nn(C)c2cc(N(C)c3ccnc(Nc4cccc(S(N)(=O)=O)c4)n3)ccc12   11.1
20  CC1=C(C(=O)Nc2ccc3[nH]ncc3c2)C(c2ccc(Cl)c(Cl)c2)CC(=O)N1 (centres undefined)   17.4
21  COc1cccc(-n2ncc3c(N/N=C/c4cccc(F)c4)ncnc32)c1    0.4
22  COc1cc2ncn(-c3cc(O[C@@H](C)c4ccccc4Cl)c(C(N)=O)s3)c2cc1OC   10.3
23  CS(=O)(=O)CCNCc1ccc(-c2ccc3ncnc(Nc4ccc(OCc5cccc(F)c5)c(C(F)(F)F)c4)c3c2)o1  -1.31
24  CN1CCC(C(=O)Nc2n[nH]c3nnc(-c4ccccc4)cc23)CC1   9.17
25     Cc1cccc(-c2n[nH]cc2-c2ccc3ncccc3n2)n1   2.63
26    N#Cc1c(NC(=O)c2cccc3ccccc23)sc2c1CCCC2   12.3
27  CC1=C(C(=O)Nc2ccc3[nH]ncc3c2)C(c2ccc3ccccc3c2)CC(=O)N1 (centres undefined)     13
28  CCn1c(-c2nonc2N)nc2cnc(Oc3cccc(NC(=O)c4ccc(OCCN5CCOCC5)cc4)c3)cc21   3.92
29  NS(=O)(=O)c1ccc(N/N=C2\C(=O)Nc3ccc(C(=O)NCCc4c[nH]cn4)cc32)cc1  -1.33
30  O=C1Nc2ccc(C(=O)c3ccco3)cc2C1=Cc1cc(Cl)c(O)c(Cl)c1    3.8
31  Fc1cccc(COc2ccc(Nc3ncnc4cc(-c5ccc[nH]5)sc34)cc2Cl)c1   3.22
32  c1cnn2ncc(-c3ccnc(Nc4ccc5c(c4)OCCO5)n3)c2c1  -0.83
33  CS(=O)(=O)CCN(CC#N)Cc1ccc(-c2ccc3ncnc(Nc4ccc(OCc5cccc(F)c5)c(Cl)c4)c3c2)o1   3.38
34             COc1ccccc1Nc1ncc(-c2ccccc2)o1   8.59

---

Overview of recorded inhibition for various compounds
# measured-target: Non-receptor tyrosine-protein kinase TYK2 (Homo sapiens);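 also: values are mean percent inhibition of TYK2 kinase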
# protocol-conditions: at 1 µM
value-kind: inhibition (%)

> print(dat)
                                   compound  value
1  COc1ccc2cc(-c3c(-c4ccncc4)nc(-c4ccc([S+](C)[O-])cc4)n3C)ccc2c1 (stereo unspecified)  -4.84
2  O=C1NC(=O)C(N2CCc3ccccc32)=C1c1ccc(Cl)cc1  -4.27
3      CNC(=O)c1cncc(/C=C/c2c(Cl)cccc2Cl)c1  -3.44
4  CCc1cccc(NC(=O)Nc2ccc(Oc3ccc4nc(NC(=O)OC)[nH]c4c3)cc2)c1  -2.46
5  c1cnn2ncc(-c3ccnc(Nc4ccc5c(c4)OCCO5)n3)c2c1   12.8
6       CCn1c(-c2nonc2N)nc2c(N3CCCC3)nccc21   4.26

---

# key: entry, value: inhibition
# measured-target: Tyrosine-protein kinase ITK/TSK (Homo sapiens) (UniProt Q08881);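 also: values are mean percent inhibition of ITK from the GSK PKIS screen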
# Sequence (Q08881 whole entry): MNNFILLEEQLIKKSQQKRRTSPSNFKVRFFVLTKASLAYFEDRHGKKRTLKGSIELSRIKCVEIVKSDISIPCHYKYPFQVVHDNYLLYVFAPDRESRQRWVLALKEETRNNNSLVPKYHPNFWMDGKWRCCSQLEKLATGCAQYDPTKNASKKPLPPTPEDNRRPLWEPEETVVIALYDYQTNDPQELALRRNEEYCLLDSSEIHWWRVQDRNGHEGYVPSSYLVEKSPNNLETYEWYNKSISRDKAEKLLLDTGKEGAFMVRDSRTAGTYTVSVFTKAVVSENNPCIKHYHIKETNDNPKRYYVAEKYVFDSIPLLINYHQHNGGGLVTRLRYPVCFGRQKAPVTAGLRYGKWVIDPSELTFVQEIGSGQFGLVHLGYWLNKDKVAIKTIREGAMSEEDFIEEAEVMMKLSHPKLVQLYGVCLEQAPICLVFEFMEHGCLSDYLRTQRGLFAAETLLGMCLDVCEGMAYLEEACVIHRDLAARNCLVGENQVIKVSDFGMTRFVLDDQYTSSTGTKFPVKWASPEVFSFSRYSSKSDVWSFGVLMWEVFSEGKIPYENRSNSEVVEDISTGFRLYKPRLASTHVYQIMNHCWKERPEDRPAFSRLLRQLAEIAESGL
# protocol-conditions: at 1 µM
value-kind: inhibition (%)

> print(dat)
                                    molecule  value
 1  COc1cc2c(cc1Nc1nc(N3CCc4ccccc43)c3cc[nH]c3n1)N(C(=O)CN(C)C)CC2   1.52
 2  Nc1nc(-c2ccc3c(c2)C(=Cc2cc(Br)c(O)c(Br)c2)C(=O)N3)cs1   1.31
 3  NS(=O)(=O)c1ccc(N/N=C2\C(=O)Nc3ccc(C(=O)NCCc4c[nH]cn4)cc32)cc1   3.56
 4  Cc1cc(O)cc(C)c1/C=C/c1cncc(-c2nn[nH]n2)c1  -1.93
 5  c1cnn2ncc(-c3ccnc(Nc4ccc5c(c4)OCCO5)n3)c2c1   5.82
 6  CS(=O)(=O)CCNCc1nc(-c2ccc3ncnc(Nc4ccc(F)c(Cl)c4)c3c2)cs1   0.89
 7  CN(C)c1cc2c(Nc3ccc4nc(Cc5ccccc5)[nH]c4c3)ncnc2cn1   1.51
 8  Fc1cccc(COc2ccc(Nc3ncnc4cc(-c5ccc[nH]5)sc34)cc2Cl)c1   -1.9
 9  O=C1NC(=O)C(c2cccc(Cl)c2)=C1Nc1ccc(O)c(Cl)c1   1.28
10      CNC(=O)c1cncc(/C=C/c2c(Cl)cccc2Cl)c1  -1.73
11  O=C1NC(=O)C(c2ccc(Cl)cc2)=C1Nc1ccc(Cl)c(C(=O)O)c1   0.04
12  Cc1nn(C)c2cc(N(C)c3ccnc(Nc4cccc(S(N)(=O)=O)c4)n3)ccc12   8.33
13  NC(=O)c1ccc(-c2nc(-c3ccccn3)c(-c3ccc4c(c3)OCO4)[nH]2)cc1   1.43
14  CCn1c(-c2nonc2N)nc2c(C#CC(C)(C)O)nc(OC[C@@H](N)c3ccccc3)cc21   0.95
15  CN1CCC(C(=O)Nc2n[nH]c3nnc(-c4ccccc4)cc23)CC1   2.38
16  [O-][S+]1CCN(Cc2ccc(-c3ccc4ncnc(Nc5ccc(OCc6ccccc6)c(F)c5)c4c3)o2)CC1   2.13
17             COc1ccc(-c2coc3ncnc(N)c23)cc1   1.48
18  CC(=O)Nc1cccc(C#Cc2cncnc2Nc2ccc(OCc3cccc(F)c3)c(Cl)c2)n1   0.33
19  CCc1cccc(NC(=O)Nc2ccc(Oc3ccc4nc(NC(=O)OC)[nH]c4c3)cc2)c1   1.87
20  CCCN1CCC(Oc2cc(Nc3nc(Nc4cccc(F)c4C(N)=O)c4cc[nH]c4n3)c(OC)cc2Cl)CC1   1.18
21               COc1ccc(-c2ccncc2)cc1C(N)=O   2.32
22  CC1=C(C(=O)Nc2ccc3[nH]ncc3c2)C(c2ccc(Cl)c(Cl)c2)CC(=O)N1 (centres undefined)   0.67
23  O=C(Nc1n[nH]c2nc(-c3ccco3)c(Br)cc12)C1CC1   23.7
24  CS(=O)(=O)CCNCc1ccc(-c2ccc3ncnc(Nc4ccc(OCc5cccc(F)c5)c(C(F)(F)F)c4)c3c2)o1   0.72
25  CCn1c(-c2nonc2N)nc2cnc(Oc3cccc(NC(=O)c4ccc(OCCN5CCOCC5)cc4)c3)cc21   0.94
26  COc1cc2ncn(-c3cc(OCc4ccccc4C(F)(F)F)c(C(N)=O)s3)c2cc1OC  -0.36
27  Cc1ccc(C(=O)NC2CCCCC2)cc1-c1ccc(C(=O)NCC2CC2)cc1   2.35
28   COc1cc(C=NNc2ncnc3c2cnn3-c2ccccc2)ccc1O   4.53
29  COc1ccc2cc(-c3c(-c4ccncc4)nc(-c4ccc([S+](C)[O-])cc4)n3C)ccc2c1 (centres undefined)   3.22
30  Cc1ccc(NC(=O)c2ccnc(N3CCCC3)c2)cc1-c1ccc(C(=O)NCC2CC2)cc1  -1.06
31  CS(=O)(=O)CCN(CC#N)Cc1ccc(-c2ccc3ncnc(Nc4ccc(OCc5cccc(F)c5)c(Cl)c4)c3c2)o1  -3.44
32  COc1cc(C)c(NC(=O)CN(C)C)cc1Nc1nc(Nc2cccc(F)c2C(N)=O)c2cc[nH]c2n1   1.95
33  CS(=O)(=O)CCNCc1ccc(-c2ccc3ncnc(Nc4ccc(OCc5ccccc5)c(Cl)c4)c3c2)o1   1.43
34  CS(=O)(=O)Nc1ccc(N/C=C2\C(=O)Nc3ccccc32)cc1   3.61
35  Nc1ncnc2occ(-c3ccc(NC(=O)Nc4cc(C(F)(F)F)cc(C(F)(F)F)c4)cc3)c12   11.2
36  O=C1Nc2ccc(C(=O)c3ccco3)cc2C1=Cc1cc(Cl)c(O)c(Cl)c1   3.21
37  CC1=C(C(=O)Nc2ccc3[nH]ncc3c2)C(c2ccc(F)cc2)NC(=O)N1 (centres undefined)   1.33
38  COc1ccc(-c2nn3ncccc3c2-c2ccnc(Nc3ccc(Cl)c(C(F)(F)F)c3)n2)cc1   0.32
39  NCc1ccc(-c2nc(-c3ccc(Cl)c(O)c3)c(-c3ccncc3)[nH]2)cc1   1.29
